Just for reference, ChEMBL document CHEMBL4513216 is where these values come from.

Test system: Plasmodium berghei
Assay: Screen against P. berghei liver stage (PbLuc), transformed with Luciferase, at 10uM
Format: functional, HepG2
Settings: tested at 10 uM
In all, about 69,000 compounds went through this assay and about 8,600 (12%) showed an effect of 50% or more. Only a selection was taken, and strong results are over-represented in it overall.
Label y when INHIBITION is strictly below 30%; otherwise label n.

Study these solved cases before continuing.
> print(dat)
                                   compound     subject.of.test  qualitative.label
1  CCCC1c2ccccc2CCN1CCS(C)(=O)=O (stereo not given)  Plasmodium berghei                  y
2        CC(=O)N(C)Cc1ccccc1NC(=O)c1ccccc1C  Plasmodium berghei                  y
3    CC(=O)N(C)Cc1ccccc1NC(=O)N(C)CCc1cccs1  Plasmodium berghei                  n

Asked: Strictly below 30% in INHIBITION? CC(=O)N(C)Cc1ccccc1NCc1c(C)noc1C
Given back: y

Asked: Strictly below 30% in INHIBITION? C=C(C)CN(CC)C(=O)Nc1ccccc1CN(C)C(C)=O
Given back: y

====

System: Plasmodium berghei
Assay: Screen against P. berghei liver stage (PbLuc), transformed with Luciferase, at 10uM
Assay type: functional, HepG2
Settings: tested at 10 uM
The campaign covered roughly 69,000 compounds. About 8,600 (12%) showed an effect of 50% or more. This is one part of a sample in which strong results are shown more often than they occur.
Label TRUE when INHIBITION is strictly below 20%; otherwise label FALSE.

> print(dat)
                        molecule  qualitative.label
1  Cc1nc(CN2CCc3ncnc(C)c3CC2)cs1              FALSE

Asked: Strictly below 20% in INHIBITION? Cc1nc(CN2CCN(c3ccc(SC(C)C)nn3)CC2)cs1
Given back: TRUE

====

Test system: Plasmodium berghei
Assay: Screen against P. berghei liver stage (PbLuc), transformed with Luciferase, at 10uM
Type: functional, HepG2
Details: tested at 10 uM
The whole screen tested about 69,000 compounds, of which about 8,600 (12%) showed an effect of 50% or more. Shown is part of a subset that was picked to be rich in strong results.
Short version: INHIBITION at least 10% is yes (1), less is no (0).

Study these solved cases before continuing.
> print(dat)
                                   compound  qualitative.label
1  O=C(C1CCOCC1)N1CC[C@@H](O)[C@@H]1Cc1ccncc1             no (0)
2  CC[C@@H]1N(Cc2ccc(F)cc2)CCC[C@]12CCC(=O)N2CCOC             no (0)
3       Cc1csc(C(=O)NCCN2CCC(c3cccs3)CC2)c1            yes (1)
4  CC(O)c1cn(CC2CCN(C(=O)c3cscn3)CC2)nn1 (stereo not drawn)            yes (1)
5  CN(C)c1nc2c(c(N3CCC(O)CC3)n1)CN(CC1CCNC1)CC2 (stereo not drawn)            yes (1)
6  CC(O)c1cn(CC2CCN(C(=O)CN(C)C(C)C)CC2)nn1 (stereo not drawn)             no (0)

Asked: Item O=C(c1ccno1)N1CC[C@@H]2O[C@H](COCCN3CCCC3)CC[C@@H]21 with INHIBITION of 10% or above?
Given back: no (0)

Asked: Item CN(C)c1nc2c(c(N3CCC(O)CC3)n1)CN(CC(C)(C)C)CC2 with INHIBITION of 10% or above?
Given back: yes (1)

Asked: Item COc1ccc2c(c1)CCN2Cc1nc2c(cnn2C)c(=O)[nH]1 with INHIBITION of 10% or above?
Given back: yes (1)

Asked: Item CC(O)c1cn(CC2CCN(C(=O)c3cccc(N(C)C)c3)CC2)nn1 (stereo not drawn) with INHIBITION of 10% or above?
Given back: yes (1)

Asked: Item COc1ccccc1-c1ncc(CN2CCC3(CCNCC3)CC2)cn1 with INHIBITION of 10% or above?
Given back: yes (1)

Asked: Item N#CCCN(CC1CCCO1)C(=O)c1ccc2nonc2c1 (stereo not drawn) with INHIBITION of 10% or above?
Given back: no (0)

====

System: Plasmodium berghei
Experiment: Screen against P. berghei liver stage (PbLuc), transformed with Luciferase, at 10uM
Type: functional, HepG2
Details: tested at 10 uM
The whole screen tested about 69,000 compounds, of which about 8,600 (12%) showed an effect of 50% or more. This is one part of a sample in which strong results are shown more often than they occur.
Form field: INHIBITION (one value per entry).
Numeric only. Scale: %

> print(dat)
                                   molecule  experimental.result
1  O=C(COc1cccc(F)c1)N1C[C@H](CO)C[C@H](CN2CCCC2)C1                10.42
2  Cc1n[nH]c(SCCNC2CCN(c3nc4ccccc4s3)CC2)n1                 50.2
3  COc1ccc(CN2CCO[C@H]3[C@H](Oc4ccccn4)CC[C@@H]32)cc1                 41.2
4  c1ccc(O[C@H]2CC[C@H]3[C@H]2OCCN3Cc2nccs2)nc1                  6.8
5    CCCc1cc(CNC2CCN(c3cc(C)nc(N)n3)CC2)on1                 71.1

Now for another entry.
Asked: # input molecule: COCCOc1ncccc1C(=O)N(C)c1nccs1 ; wanted: its INHIBITION
Given back: 45.2

====

Tested on: Plasmodium berghei
Experiment: Screen against P. berghei liver stage (PbLuc), transformed with Luciferase, at 10uM
Format: functional, HepG2
Settings: tested at 10 uM
About 8,600 (12%) of roughly 69,000 compounds showed an effect of 50% or more. For the sample, strong results were picked, then their nearest neighbours and some compounds at random.
Short version: INHIBITION at least 30% is YES, less is NO.

Asked: Item CC(C)Nc1ncnc2c1CCN(C(=O)Cc1cccs1)CC2 with INHIBITION of 30% or above?
Given back: NO

Asked: Item COc1cccc(OC)c1CN1CC(=O)N(c2ccc(C)cc2)CC1C (configuration not stated) with INHIBITION of 30% or above?
Given back: YES

Asked: Item O=C(CCc1ccncc1)NCCOc1ncc(Cl)cc1Cl with INHIBITION of 30% or above?
Given back: NO

Asked: Item COCc1cc(O)nc(C2CCCN(Cc3cc(OC)ccc3F)C2)n1 (configuration not stated) with INHIBITION of 30% or above?
Given back: YES

Asked: Item O=C(CCn1cncn1)NCCOc1cccc(Cl)c1 with INHIBITION of 30% or above?
Given back: NO

Asked: Item CNC(=O)CN(C)c1nc(-c2ccncc2)nc2c1CCN(C(C)=O)C2 with INHIBITION of 30% or above?
Given back: YES

Asked: Item COc1cc(CN2CC(=O)N(c3ccc(C)cc3)CC2C)cc(OC)c1 (configuration not stated) with INHIBITION of 30% or above?
Given back: YES

Asked: Item COc1ccc(CCNc2cc(-c3nc(C)no3)ccn2)cc1OC with INHIBITION of 30% or above?
Given back: NO

Asked: Item CCC[C@@H]1CN(Cc2ccccc2-c2ccco2)C[C@H]1NC(C)=O with INHIBITION of 30% or above?
Given back: NO

Asked: Item Cc1noc(-c2ccnc(Oc3ccc(CN4CCCC4)cc3C)c2)n1 with INHIBITION of 30% or above?
Given back: YES

Asked: Item CC(NC(=O)c1ccoc1)c1ccc2c(c1)CCC(=O)N2 (configuration not stated) with INHIBITION of 30% or above?
Given back: NO

Asked: Item O=C(NCCOc1ncc(Cl)cc1Cl)c1ccoc1 with INHIBITION of 30% or above?
Given back: NO

Asked: Item CNC(=O)CN1CC[C@H]2CN(C(=O)c3ccc(C)cc3)C[C@H]2C1 with INHIBITION of 30% or above?
Given back: NO

Asked: Item CCOCc1nn(CC2CC2)c2c1CN(Cc1cccs1)CC2 with INHIBITION of 30% or above?
Given back: YES

Asked: Item CCOc1cc(CNc2cc(-c3nc(C)no3)ccn2)ccc1OC with INHIBITION of 30% or above?
Given back: NO

Asked: Item O=C(CCn1cccn1)NCCOc1cccc(Cl)c1 with INHIBITION of 30% or above?
Given back: YES

Asked: Item Cn1nc(C(=O)N2CCCCCC2)cc1NC(=O)c1ccccc1 with INHIBITION of 30% or above?
Given back: NO

Asked: Item Cn1cnc(S(=O)(=O)N2CCCC2c2ccnc3nccn23)c1 (configuration not stated) with INHIBITION of 30% or above?
Given back: NO
